# test.name: Metabolic stability in liver microsomes (intrinsic clearance)
# Format: in vitro ADME
# assay.conditions: human, microsomes, pH 7.4, Metabolic Stability Half life (human, min.)
Exercise: for every item that follows, state its recorded half-life at 1 µM.

INSERT INTO results (compound, recorded_measurement) VALUES
  ('CCc1nc2ncc(C)cn2c1C(=O)NCc1ccc(-c2nc3n(n2)CCC(C(F)(F)F)C3)cc1 (stereo not drawn) [Compound 1ab]', '> 3 h'),
  ('CCc1nc2ncc(C)cn2c1C(=O)NCc1ccc(-c2cc3n(n2)CCCC3)cc1', '> 9.33 h'),
  ('CCc1nc2nc(N)c(C)cn2c1C(=O)NCc1ccc(-c2nc3n(n2)CCC(C(F)(F)F)C3)cc1 (stereo not drawn) [Compound 12ab]', '> 3 h'),
  ('CCc1nc2ncc(C)cn2c1C(=O)NCc1ccc(-c2nc3n(n2)CCC(C(F)(F)F)C3)cc1 (single isomer, unassigned) [Compound 1a]', '> 3 h'),
  ('CCc1cnc2nc(CC)c(C(=O)NCc3ccc(-c4cn5c(n4)C[C@@H](C(F)(F)F)CC5)cc3)n2c1', '< 0.0667 h');

Proceeding to the next compound to report its half-life at 1 µM.
[ask] Would you kindly share the measured half-life at 1 µM for CCc1nc2ncc(C)cn2c1C(=O)NCc1ccc(-c2nc3n(n2)CCC(O)C3)cc1 (stereo not drawn) [Compound 29ab] ?
[reply] > 3 h

---

# test.name: Metabolic stability in liver microsomes (intrinsic clearance)
# Assay type: in vitro ADME
# assay.conditions: mouse, microsomes, pH 7.4, mouse liver microsomes; read-out: Metabolic Stability (liver microsome intrinsic clearance) Clearance (mouse, μl/min./mg protein)
I'd appreciate it if you could supply microsomal CLint at 1 µM values for the items below.

INSERT INTO results (compound, measurement_kind, recorded_measurement) VALUES
  ('CCc1nc2nc(C)ccn2c1C(=O)NCc1ccc(-c2cn3c(n2)CC(C)CC3)cc1 (stereo not drawn)', 'microsomal CLint at 1 µM', '< 7.7 µL/min/mg'),
  ('CCc1nc2ncc(C)cn2c1C(=O)NCc1cc(C)c(-c2nc3n(n2)CCC(C(F)(F)F)C3)cn1 (stereo not drawn)', 'microsomal CLint at 1 µM', '< 7.7 µL/min/mg');

For the next question, use this compound.
[ask] Please look up its microsomal CLint at 1 µM: CCc1nc2ncc(C)cn2c1C(=O)NCc1ccc(-c2nc3n(n2)CCC(C(F)(F)F)C3)cc1 (single isomer, unassigned) [Compound 1a]
[reply] < 7.7 µL/min/mg

---

# test.name: Metabolic stability in liver microsomes (intrinsic clearance)
# Assay type: in vitro ADME
# assay.conditions: mouse, microsomes
measurement.kind: Metabolic Stability Half life (mouse, min.)

Solved entries (count: 2):
INSERT INTO results (molecule, recorded_measurement) VALUES
  ('CCc1nc2ncccn2c1C(=O)NCc1ccc(-c2nc3n(n2)CC[C@@H](C(F)(F)F)C3)c(F)c1 (single isomer, unassigned) [Compound 73]', '>180 min'),
  ('CCc1nc2ncccn2c1C(=O)NCc1ccc(-c2nc3n(n2)CC[C@H](C(F)(F)F)C3)c(F)c1 (single isomer, unassigned) [Compound 74]', '>180 min');

[ask] Which Metabolic Stability Half life (mouse, min.) value belongs to CCc1nc2nc(C)ccn2c1C(=O)NCc1ccc(-c2nc3n(n2)CCC(C(F)(F)F)C3)cc1 (stereo not drawn) [Compound 5b] ?
[reply] >180 min

---

# test.name: HTChem stab assay (chemical stability in buffer pH2, pH4 and pH7 vs DMSO reference)
# Format: physicochemical
# assay.conditions: 72 h, 50 µM, pH 4
measurement.kind: Chemical stability data, Buffer pH4 (%)
Answers are plain numbers, in %.

Below: 5 molecules and their reported Chemical stability data, Buffer pH4.
INSERT INTO assay_data (molecule, measurement_kind, display_unit, recorded_measurement) VALUES
  ('CCc1nc2ncc(C)cn2c1C(=O)NCc1ccc(-c2nc3n(n2)CCC(C)C3)cc1 (stereo not drawn)', 'Chemical stability data, Buffer pH4', '%', 98),
  ('CCc1nc2ncc(C)cn2c1C(=O)NCc1ccc(-c2nc3n(c2C)CCC(C(F)(F)F)C3)cc1 (stereo not drawn) [Compound 19ab]', 'Chemical stability data, Buffer pH4', '%', 98),
  ('CCc1nc2ncc(Cl)cn2c1C(=O)NCc1ccc(-c2nc3n(n2)CCC(C(F)(F)F)C3)cc1 (single isomer, unassigned) [Compound 10b]', 'Chemical stability data, Buffer pH4', '%', 71),
  ('CCc1nc2nc(C)c(C)cn2c1C(=O)NCc1ccc(-c2nc3n(n2)CCC(C(F)(F)F)C3)cc1 (stereo not drawn)', 'Chemical stability data, Buffer pH4', '%', 100),
  ('CCc1nc2ncc(C)cn2c1C(=O)NCc1ccc(-c2nc3n(n2)CC(C(F)(F)F)CC3)cc1 (stereo not drawn) [Compound 24ab]', 'Chemical stability data, Buffer pH4', '%', 100);

[ask] Look at this molecule and give its reported Chemical stability data, Buffer pH4. Cc1cnc2nc(C3CC3)c(C(=O)NCc3ccc(-c4nc5n(n4)CCC(C(F)(F)F)C5)cc3)n2c1 (stereo not drawn)
[reply] 100

---

What Chemical stability data, Vehicle DMSO was measured for each of the following?
# test.name: HTChem stab assay (chemical stability in buffer pH2, pH4 and pH7 vs DMSO reference)
# Format: physicochemical
# assay.conditions: 72 h, 50 µM
Numbers only, in %.

Here are 4 compounds together with their reported answers.
INSERT INTO measurements (compound, recorded_measurement) VALUES
  ('CCc1nc2ncc(C)cn2c1C(=O)NCc1ccc(-c2nc3n(n2)CCC(C2CC2)C3)cc1 (centres unmarked) [Compound 27ab]', 100),
  ('CCc1nc2ncc(C)cn2c1C(=O)NCc1ccc(-c2nc3n(n2)CCC(C(F)(F)F)C3)c(C)c1 (centres unmarked) [Compound 23ab]', 100),
  ('CCc1nc2ncc(C)cn2c1C(=O)NCc1ccc(-c2nc3n(n2)CCC(OC)C3)cc1 (centres unmarked) [Compound 26ab]', 95),
  ('CCc1nc2ncc(C)cn2c1C(=O)NCc1ccc(-c2nc3n(n2)CCC(OC(F)(F)F)C3)cc1 (centres unmarked) [Compound 33ab]', 100);

Consider the record given below.
[ask] Which Chemical stability data, Vehicle DMSO reading was recorded for the compound CCc1nc2ncc(C)cn2c1C(=O)NCc1ccc(-c2nc3n(n2)CCC(O)C3)cc1 (centres unmarked) [Compound 29ab] ?
[reply] 100

Data provenance: patent US20250034171A1
